# Protocol Summary: Self-assembly study: putting peptides in solution in water, macroscopic, ATR-FTIR, TEM and SAXS analysis
# Type: physicochemical
# Measurement Parameters: 3 to 15% by mass of peptide in water; form and diameter of the self-assembled structure, or soluble / insoluble
Bridge positions count the residues as written; N and C are the ends. Square brackets hold non-standard residues; d marks the D form. Peptide text beside a SMILES is read from it. ξ: configuration not given here. 2Nal = N[C@@H](Cc1ccc2ccccc2c1)C(=O)O; dThr(3ξ) = CC(O)[C@@H](N)C(=O)O
Reported Endpoint: Assembly

Input: Any idea what Assembly was measured for CC(C)[C@H]1NC(=O)[C@@H](CCCCN)NC(=O)[C@H](Cc2c[nH]c3ccccc23)NC(=O)[C@@H](Cc2ccc(O)cc2)NC(=O)[C@H](NC(=O)[C@@H](N)Cc2ccc3ccccc3c2)CSSC[C@H](C(=O)N[C@@H](C(N)=O)C(C)O)NC1=O (stereo partly shown) [Example 23] (H-[2Nal][dC][dY]W[dK][dV][dC][dThr(3ξ)]-NH2; disulfide 2-7) ?
Output: 24.4 nm monodisperse nanotube
